MEC values for the molecules below.
species: Gallus gallus; experiment: Minimum concentration of the compound(ppm) in feed which provides control of Eimeria tenella lesions equivalent to noninfected, nonmedicated birds; type: functional
Kindly provide the numeric value in p.p.m. only, without the unit symbol.

Query string: Please report the measured MEC for C=CCC(C(=O)[O-])[C@@]1(O)O[C@@H]([C@H](C)[C@H]2O[C@@]3(CC[C@@](C)([C@H]4CC[C@@](C)([C@@H]5O[C@@H]([C@H]6O[C@](C)(O)[C@H](C)C[C@@H]6C)C[C@@H]5O[C@H]5CC[C@H](OC)[C@@H](C)O5)O4)O3)C[C@H](O)[C@H]2C)[C@H](OC)[C@@H](O[C@H]2CC[C@H](OC)[C@@H](C)O2)[C@@H]1C.[Na+] (some centres not stated)
Result string: 60

Further cases:
Query string: Please report the measured MEC for CCCC(C(=O)[O-])[C@@]1(O)O[C@@H]([C@H](C)[C@H]2O[C@@]3(CC[C@@](C)([C@H]4CC[C@@](C)([C@@H]5O[C@@H]([C@H]6O[C@](C)(O)[C@H](C)C[C@@H]6C)C[C@@H]5O[C@H]5CC[C@H](OC)[C@@H](C)O5)O4)O3)C[C@H](O)[C@H]2C)[C@H](OC)[C@@H](O[C@H]2CC[C@H](OC)[C@@H](C)O2)[C@@H]1C.[Na+] (some centres not stated)
Result string: 60

---

species: Gallus gallus; test: Minimum concentration of the compound(ppm) in feed which provides control of Eimeria tenella lesions equivalent to noninfected, nonmedicated birds; type: functional
attribute measured: MEC

Query string: Please report the measured MEC for `CO[C@@H]1[C@@H](O[C@H]2CC[C@H](OC)[C@@H](C)O2)[C@H](C)[C@@](O)(CC(=O)[O-])O[C@H]1[C@H](C)[C@H]1O[C@@]2(CC[C@@](C)([C@H]3CC[C@@](C)([C@@H]4O[C@@H]([C@H]5O[C@](C)(O)[C@H](C)C[C@@H]5C)C[C@@H]4O[C@H]4CC[C@H](OC)[C@@H](C)O4)O3)O2)C[C@H](O)[C@H]1C.[Na+]`
Result string: 15 p.p.m.

Query string: Please report the measured MEC for C#CCC(C(=O)[O-])[C@@]1(O)O[C@@H]([C@H](C)[C@H]2O[C@@]3(CC[C@@](C)([C@H]4CC[C@@](C)([C@@H]5O[C@@H]([C@H]6O[C@](C)(O)[C@H](C)C[C@@H]6C)C[C@@H]5O[C@H]5CC[C@H](OC)[C@@H](C)O5)O4)O3)C[C@H](O)[C@H]2C)[C@H](OC)[C@@H](O[C@H]2CC[C@H](OC)[C@@H](C)O2)[C@@H]1C.[Na+] (stereo in doubt; 2e)
Result string: >60 p.p.m.

Query string: Please report the measured MEC for `CO[C@@H]1[C@@H](O[C@H]2CC[C@H](OC)[C@@H](C)O2)[C@H](C)[C@@](O)(CC(=O)[O-])O[C@H]1[C@H](C)[C@H]1O[C@@]2(CC[C@@](C)([C@H]3CC[C@@](C)([C@@H]4O[C@@H]([C@@H](O)[C@@H](C)C[C@@H](C)C(C)(C)O)C[C@@H]4O[C@H]4CC[C@H](OC)[C@@H](C)O4)O3)O2)C[C@H](O)[C@H]1C.[Na+]`
Result string: >120 p.p.m.

---

MEC values for the molecules below.
species: Gallus gallus; test: Minimum concentration of the compound(ppm) in feed which provides control of Eimeria tenella lesions equivalent to noninfected, nonmedicated birds; format: functional

Query string: Please report the measured MEC for CO[C@@H]1[C@@H](O[C@H]2CC[C@H](OC)[C@@H](C)O2)[C@H](C)[C@@](O)(C(C)C(=O)[O-])O[C@H]1[C@H](C)[C@H]1O[C@@]2(CC[C@@](C)([C@H]3CC[C@@](C)([C@@H]4O[C@@H]([C@H]5O[C@](C)(O)[C@H](C)C[C@@H]5C)C[C@@H]4O[C@H]4CC[C@H](OC)[C@@H](C)O4)O3)O2)C[C@H](O)[C@H]1C.[Na+] (some centres not stated)
Result string: 7.5 p.p.m.

Now take the following molecule into account.
Query string: Please report the measured MEC for `CO[C@@H]1[C@@H](O[C@H]2CC[C@H](OC)[C@@H](C)O2)[C@H](C)[C@@](O)(CC(=O)[O-])O[C@H]1[C@H](C)[C@H]1O[C@@]2(CC[C@@](C)([C@H]3CC[C@@](C)([C@@H]4O[C@@H]([C@@H](O)[C@@H](C)C[C@@H](C)[C@@H](C)O)C[C@@H]4O[C@H]4CC[C@H](OC)[C@@H](C)O4)O3)O2)C[C@H](O)[C@H]1C.[Na+]`
Result string: 80 p.p.m.

---

organism: Gallus gallus; assay: Minimum concentration of the compound(ppm) in feed which provides control of Eimeria tenella lesions equivalent to noninfected, nonmedicated birds; format: functional
attribute measured: MEC (p.p.m.)
Kindly provide the numeric value in p.p.m. only, without the unit symbol.

Worked set:
Query string: Please report the measured MEC for `CO[C@@H]1[C@@H](O[C@H]2CC[C@H](OC)[C@@H](C)O2)[C@H](C)[C@](CC(=O)[O-])(OC)O[C@H]1[C@H](C)[C@H]1O[C@@]2(CC[C@@](C)([C@H]3CC[C@@](C)([C@@H]4O[C@@H]([C@H]5O[C@](C)(O)[C@H](C)C[C@@H]5C)C[C@@H]4O[C@H]4CC[C@H](OC)[C@@H](C)O4)O3)O2)C[C@H](O)[C@H]1C.[Na+]`
Result string: 120

Query string: Please report the measured MEC for `CO[C@@H]1[C@@H](O[C@H]2CC[C@H](OC)[C@@H](C)O2)[C@H](C)[C@@](O)(CC(=O)[O-])O[C@H]1[C@H](C)[C@H]1O[C@@]2(CC[C@@](C)([C@H]3CC[C@@](C)([C@@H]4O[C@@H]([C@H]5O[C@](C)(OC)[C@H](C)C[C@@H]5C)C[C@@H]4O[C@H]4CC[C@H](OC)[C@@H](C)O4)O3)O2)C[C@H](O)[C@H]1C.[Na+]`
Result string: 50

Query string: Please report the measured MEC for C#CCC(C(=O)[O-])[C@@]1(O)O[C@@H]([C@H](C)[C@H]2O[C@@]3(CC[C@@](C)([C@H]4CC[C@@](C)([C@@H]5O[C@@H]([C@H]6O[C@](C)(O)[C@H](C)C[C@@H]6C)C[C@@H]5O[C@H]5CC[C@H](OC)[C@@H](C)O5)O4)O3)C[C@H](O)[C@H]2C)[C@H](OC)[C@@H](O[C@H]2CC[C@H](OC)[C@@H](C)O2)[C@@H]1C.[Na+] (stereo in doubt; 2f)
Result string: 60

Query string: Please report the measured MEC for CO[C@@H]1[C@@H](O)[C@H](C)[C@@](O)(CC(=O)[O-])O[C@H]1[C@H](C)[C@H]1O[C@@]2(CC[C@@](C)([C@H]3CC[C@@](C)([C@@H]4O[C@@H]([C@H]5O[C@](C)(O)[C@H](C)C[C@@H]5C)C[C@@H]4O[C@H]4CC[C@H](OC)[C@@H](C)O4)O3)O2)C[C@H](O)[C@H]1C.[Na+] [SEMDURAMICIN SODIUM]
Result string: 25

Now take the following molecule into account.
Query string: Please report the measured MEC for CCC(C(=O)[O-])[C@@]1(O)O[C@@H]([C@H](C)[C@H]2O[C@@]3(CC[C@@](C)([C@H]4CC[C@@](C)([C@@H]5O[C@@H]([C@H]6O[C@](C)(O)[C@H](C)C[C@@H]6C)C[C@@H]5O[C@H]5CC[C@H](OC)[C@@H](C)O5)O4)O3)C[C@H](O)[C@H]2C)[C@H](OC)[C@@H](O[C@H]2CC[C@H](OC)[C@@H](C)O2)[C@@H]1C.[Na+] (stereo partly specified)
Result string: 30
